Overview of recorded viability at 2 h, 100 µM for various compounds
assay type: cell-based, human; details: human, Cell viability (%)
Bridge positions count the residues as written; N and C are the ends. Square brackets hold non-standard residues; d marks the D form. Peptide text beside a SMILES is read from it. * marks the point of attachment. Phe(4-guanidino) = N=C(N)Nc1ccc(C[C@H](N)C(=O)O)cc1; Butanoyl(4-guanidino) = N=C(N)NCCCC(=O)*
Number in %, nothing else.

Ask | Recorded viability at 2 h, 100 µM for CC[C@H](C)[C@H](NC(=O)[C@H](CCCNC(=N)N)NC(=O)[C@@H]1CCCNC(=N)NCCC[C@H](NC(=O)[C@H](Cc2ccccc2)NC(=O)[C@H](Cc2c[nH]c3ccccc23)NC(=O)[C@@H]2CCCN2C(=O)[C@@H](NC(=O)[C@@H](N)Cc2ccccc2)C(C)C)C(=O)N[C@@H](CCCCN)C(=O)N[C@@H](Cc2ccccc2)C(=O)N[C@H](CC(C)C)C(=O)N1)C(=O)N[C@@H](CC(C)C)C(N)=O [Peptide 13, FVPWF{OrnKFlOrn}RIL] , please?
Reply | 2

Ask | Recorded viability at 2 h, 100 µM for CC[C@H](C)[C@H](NC(=O)[C@H](CCCNC(=N)N)NC(=O)[C@H]1CCC(=O)NCCCC[C@H](NC(=O)[C@H](Cc2ccc(NC(=N)N)cc2)NC(=O)[C@H](Cc2c[nH]c3ccccc23)NC(=O)[C@@H]2CCCN2C(=O)[C@@H](NC(=O)[C@@H](N)Cc2ccccc2)C(C)C)C(=O)N[C@@H](CCCCN)C(=O)N[C@@H](Cc2ccccc2)C(=O)N[C@H](CC(C)C)C(=O)N1)C(=O)N[C@@H](CC(C)C)C(N)=O [Peptide 8, FVPW(p-guanidino)F[KKFle]RIL] (H-FVPW[Phe(4-guanidino)]KKF[dL][dE]RIL-NH2; lactam 6-10) , please?
Reply | 63

Ask | Recorded viability at 2 h, 100 µM for CC[C@H](C)[C@H](NC(=O)[C@H](CCCNC(=N)N)NC(=O)[C@H]1CCC(=O)NCCCC[C@H](NC(=O)[C@H](Cc2ccccc2)NC(=O)[C@H](Cc2c[nH]c3ccccc23)NC(=O)[C@@H]2CCCN2C(=O)[C@@H](NC(=O)[C@H](Cc2ccccc2)NC(=O)CCCNC(=N)N)C(C)C)C(=O)N[C@@H](CCCCN)C(=O)N[C@@H](Cc2ccccc2)C(=O)N[C@H](CC(C)C)C(=O)N1)C(=O)N[C@@H](CC(C)C)C(N)=O [Peptide 5, guanidino-GABA-FVPWF[KKFle]RIL] ({Butanoyl(4-guanidino)}-FVPWFKKF[dL][dE]RIL-NH2; lactam 6-10) , please?
Reply | 4
